- experimental_protocol: yeast display, Sf9 membrane polyspecificity reagent, FACS + sequencing; frameworks hold sequencing errors
observed_property: polyreactivity (PSR sort gate)

In the examples that follow, each entry is paired with its recorded polyreactivity (PSR sort gate).
| construct_sequence | polyreactivity (PSR sort gate) |
| --- | --- |
| QVQLVESGGGLVQAGGSLRLSCAASGSIFCDKAMGWYRQAPGKERELVAAISIVGSTSYADSVKGRFTISRDNANNTVYLQMNSLKPEDTAVYYCAAENVRSDTGFDYWGQGTQVTVSS | low polyreactivity |
| QFQLVESGGGLVQAGGSLRLSCAASGRIFVRYAMGWYRQAPGKERELVAGITWSGGSTYYADSVKGRFTISRDNSKNTVYLQMNSLKPEDTAVYYCAAERRFYTSYKSKMESCGQGTQVTVSS | high polyreactivity |
| QVQLVESGGGLVQAGGSLRLSCAASGGTFRRNAMGWYRQAPGKERELVAAISFNGDRTYYADSVKGRFTISRDNAKNTVYLQMNSLKPEDTAVYYCNKASWWWGGYTYPHEYWGQGTQVTVSS | low polyreactivity |
| QVQLVESGGGLVQAGGSLRLSCAASGNTFRRNVMGWYRQAPGKERELVAAINRGGSTTDADSVKGRFTISRDNAKNTVYLQMNSLKPEDTAVYYCNARTLFKWRHGHYYAYDYWGQGTQVTVSS | high polyreactivity |

According to the records, this sequence QVQLVESAGGLVQAGGTLRLSCAASGSIFQFYAMGWYRHAPGKERELVAVITTSGVSTYYADSVKGRFTISRDNAKNTVYLQMNSLKPEDTGVYYCAARQWTSASYDYWGQGSQVTVSS displays polyreactivity (PSR sort gate) of low polyreactivity

Kindly note the recorded polyreactivity (PSR sort gate) for QVKLVESGGGLVQAGGSLRLSCAASGFIFSNNAMGWYRQAPGKEMELVAAITWNGGRTYYADSVKGRFTISRDNAKNTVYLQMNSLKQVDTAVYYCAAGRYYPLFYYWGLGTQVTVSS , which is high polyreactivity

For reference, reported polyreactivity (PSR sort gate) for QVQLVESGGGLVQAGGSLRLSCAASGRIFGVYAMGLYRQAPGKERELVAGITYSGGSTYYADSVKGRFTISRDNAKNTVYLQMNSLKPEDTAVYYCARYHWYYRVSKSDSWGQGTQVTVSS stands at high polyreactivity

polyreactivity (PSR sort gate) measured on QVQLVDSGGGLVQAGGSLRLSCAASGFTIPTYAMGWYRQAPGKERELVAAISGDGDSTYYADSVKGRFTISRDNAKNTVYLQMNSLKPEDTAVYYCAAEPNVYFSVFVLFPSDYWGQGTQVTVSS = low polyreactivity

Reported polyreactivity (PSR sort gate) of QVQLVESGGGLVQAGGSLRLSCDASGFISRYAMGWYRQAPGKERELVAAINRSGGRTYYADSVKGRFTISRDNAKNTVYLQMNSLTPEDTAVYYCAALRGRYYGVLGEYWGQCTQVTVSS : high polyreactivity

Entry under test: QVQLVESGGGLVQAGGSLRLSCAASGRTFTRYAMGWYRQAPGKEREFVAAITTRGGSTYYADSVKGRFTISRDNAKNTVYLQMNSLKPEDTAVYYCAADYYYVQVLYDLGLDYWGQGTQVTVSS . Its polyreactivity (PSR sort gate) was high polyreactivity

polyreactivity (PSR sort gate) reported for this sequence QVQLVESGGGLDQAGASLRLSCAASGSIFVPYTMGWYRQAPGKERELVASISYSGGTTYYADSVKGRFTISRDNAKYTVYLQMNSLKPEDTAVYYCAADWDDSYSYRRYRHYDYWGQGTQVTVSS : low polyreactivity
